target.or.test.system: DN-IV quality control recombinant protein (produced by the company) (dengue virus)
test.summary: BLI, antibody on AMC sensor
The reader will find reported Kd values listed item by item below.
readout.label: Kd (nM)

binder	readout.units	reading
Mutation 1-46 (antibody, V domains shown) VH: EVQLQQPGPELVKPGASVKMSCKASGYTFTSSVIHWVRQKPGQGLEWIGYMNPYNDGLKYNEKFIGKAILTSDKSSSTAYMQLSSLTSEDSAVYYCTREGLFYVMDYWGQGTSVTVSS VL: QIVLTQSPAIMSASPGEKVTMTCSATSSVSYMHWYQQKSGTSPKRWIYDTSKLASGVPVRFSGSGSGTSYSLTISSMEAEDAATYFCQQWRSDLPTFGAGTKLELKR	nM	0.569
Mutation 1-41 (antibody, V domains shown) VH: EVQLQQPGPELVKPGASVKMSCKASGYTFTSYVIHWVRQKPGQGLEWIGYMNPYNDGIKYNEKFIGKAILTSDKSSSTAYMQLSSLTSEDSAVYYCTREGLFYVMDYWGQGTSVTVSS VL: QIVLTQSPAIMSASPGEKVTMTCSATSSISYMHWYQQKSGTSPKRWIYDSSKLASGVPVRFSGSGSGTSYSLTISSMEAEDAATYFCQWWRSDLPTFGAGTKLELKR	nM	0.455
Mutation 1-30 (antibody, V domains shown) VH: EVQLQQPGPELVKPGASVKMSCKASGYTFTSTVIHWVRQKPGQGLEWIGYMNPYNDGLKYNEKFIGKAILTSDKSSSTAYMQLSSLTSEDSAVYYCTREGLFYVMDYWGQGTSVTVSS VL: QIVLTQSPAIMSASPGEKVTMTCSATSSLSYMHWYQQKSGTSPKRWIYDTSKLASGVPVRFSGSGSGTSYSLTISSMEAEDAATYFCQYWRSDLPTFGAGTKLELKR	nM	3.12
Mutation 1-10 (antibody, V domains shown) VH: EVQLQQPGPELVKPGASVKMSCKASGYTFTSSVIHWVRQKPGQGLEWIGYMNPYNDGIKYNEKFIGKAILTSDKSSSTAYMQLSSLTSEDSAVYYCTKEGLFYVMDYWGQGTSVTVSS VL: QIVLTQSPAIMSASPGEKVTMTCSATSSLSYMHWYQQKSGTSPKRWIYDTSKLASGVPVRFSGSGSGTSYSLTISSMEAEDAATYFCQWWRSDLPTFGAGTKLELKR	nM	2.65
Mutation 1-45 (antibody, V domains shown) VH: EVQLQQPGPELVKPGASVKMSCKASGYTFTSTVIHWVRQKPGQGLEWIGYMNPYNDGIKYNEKFIGKAILTSDKSSSTAYMQLSSLTSEDSAVYYCTKEGLFYVFDYWGQGTSVTVSS VL: QIVLTQSPAIMSASPGEKVTMTCSATSSLSYMHWYQQKSGTSPKRWIYDSSKLASGVPVRFSGSGSGTSYSLTISSMEAEDAATYFCQWWRSDLPTFGAGTKLELKR	nM	4.22
Mutation 1-2 (antibody, V domains shown) VH: EVQLQQPGPELVKPGASVKMSCKASGYTFTSYVIHWVRQKPGQGLEWIGYMNPYNDGLKYNEKFIGKAILTSDKSSSTAYMQLSSLTSEDSAVYYCTREGLFYVMDYWGQGTSVTVSS VL: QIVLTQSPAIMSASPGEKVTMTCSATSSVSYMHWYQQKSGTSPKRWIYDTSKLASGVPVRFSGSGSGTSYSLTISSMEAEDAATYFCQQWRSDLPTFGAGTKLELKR	nM	2.79
Mutation 1-17 (antibody, V domains shown) VH: EVQLQQPGPELVKPGASVKMSCKASGYTFTSYVIHWVRQKPGQGLEWIGYMNPYNDGIKYNEKFIGKAILTSDKSSSTAYMQLSSLTSEDSAVYYCTKEGLFYVMDYWGQGTSVTVSS VL: QIVLTQSPAIMSASPGEKVTMTCSATSSVSYMHWYQQKSGTSPKRWIYDSSKLASGVPVRFSGSGSGTSYSLTISSMEAEDAATYFCQWWRSDLPTFGAGTKLELKR	nM	2.52
